- TARGET SYSTEM: T1, GRID2IP-2, second PDZ domain of GRID2IP (human, UniProt A4D2P6 279-356)
- T1 construct: GRID2IP, human, PDZ domain 2; not shown: His6, N-terminal, kept; MBP, N-terminal, kept
- T1 sequence (A4D2P6 279-356): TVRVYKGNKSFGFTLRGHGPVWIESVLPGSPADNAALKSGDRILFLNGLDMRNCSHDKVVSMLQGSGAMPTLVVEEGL
- ASSAY INFO: fluorescence polarisation; direct: N-terminally fluorescein-labelled PBM peptide (tracer) with increasing amounts of MBP-PDZ; 384-well plates; triplicate; direct binding model (ProFit)
- MEASUREMENT CONDITIONS: both partners purified
Where no end group is shown, it is not given here.
REPORTED ENDPOINT: Kd (µM)
Form entry: value (µM) — number only.

Reported Kd for fluorescein-KLPSTTL (source: synthetic peptide) [fRSK1, fluorescein-labelled RSK1 PBM peptide] : what is it? 5.43
